# targetDesc: UniProt Q9NZQ7
# methodNotes: T cell activation luciferase reporter cell culture system (T Cell Activation Assay)
# Type: cell-based
# assayConditions: luciferase reporter assay; PD-L1 aAPC/CHO-K1 cells with PD-1 effector Jurkat T cells
outcomeMeasure: pEC50
Just the number, please; pEC50 means minus log10 of the concentration in mol/L.

Examples from the recorded data:
compound | outcomeMeasure | reading
COc1cc(-c2nccc(-c3cccc(-c4ccc(CNC5CCN(c6ccncc6)CC5)c(OC)n4)c3Cl)c2Cl)ccc1CNC1CCN(c2ccncc2)CC1 [Example 424] | pEC50 | 7.06
COc1cc(-c2nccc(-c3cccc(-c4ccc(CNC[C@@H]5CCC(=O)N5)c(OC)n4)c3Cl)c2Cl)cc(C)c1CNC[C@@H]1CCC(=O)N1 [Compound 115] | pEC50 | 7.44
COc1cc(-c2nccc(-c3cccc(-c4ccc(CNC5CCCCC5)c(OC)n4)c3Cl)c2Cl)ccc1CNC1CCCCC1 [Example 524] | pEC50 | 6.46
COc1cc(-c2nccc(-c3cccc(-c4ccc(CN5CCC(O)CC5)c(OC)n4)c3Cl)c2Cl)ccc1CNC1CCN(C(C)=O)CC1 [Example 487] | pEC50 | 7.40
COc1cc(-c2nccc(-c3cccc(-c4ccc(CNC[C@H]5CNC(=O)C5)c(OC)n4)c3Cl)c2Cl)ccc1CNC[C@H]1CNC(=O)C1 [Example 405] | pEC50 | 7.62
COc1nc(-c2cccc(-c3ccnc(-c4cc(OC)c5nc(CNC(C)C)nn5c4)c3Cl)c2Cl)ccc1CNC1CCN(C(C)=O)CC1 [Cmpd 644] | pEC50 | 7.07
COc1cc(-c2nccc(-c3cccc4c3CC[C@@H]4Nc3nc(OC)c(CN4CC5(C4)CN(C(C)=O)C5)nc3C(F)(F)F)c2Cl)ccc1CN1CC2(C1)CN(C(C)=O)C2 [Example 367] | pEC50 | 6.39
COc1cc(-c2nccc(-c3cccc(-c4ccc(CNC5CCN(C(C)=O)CC5)c(OC)n4)c3Cl)c2C#N)ccc1CNC1CCN(C(C)=O)CC1 [Example 404] | pEC50 | 7.62

Field: next compound
Consider the compound COc1nc(-c2cccc(-c3ccnc(-c4cc(OC)c5nc(CN6CC(C)(C#N)C6)cn5c4)c3Cl)c2Cl)ccc1CNC1CCN(C(C)=O)CC1 [Example 477] and give its measured pEC50.
5.13

###

Catalogue of compounds with associated pIC50
# targetDesc: PD-L1 His protein / PD-1 Fc protein (Homo sapiens (Human))
# Sequence (Q9NZQ7 19-238): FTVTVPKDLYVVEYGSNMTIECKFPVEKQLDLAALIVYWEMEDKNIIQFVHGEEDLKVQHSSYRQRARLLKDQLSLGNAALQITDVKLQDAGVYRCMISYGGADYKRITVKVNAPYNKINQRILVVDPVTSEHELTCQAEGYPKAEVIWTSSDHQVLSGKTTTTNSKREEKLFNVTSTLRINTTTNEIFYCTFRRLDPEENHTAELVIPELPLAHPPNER
# methodNotes: HTRF Assay (PD-1/PD-L1 interaction)
# Type: binding
# assayConditions: PD-L1 His 6 nM, PD-1 Fc 6 nM
Just the number, please; pIC50 means minus log10 of the concentration in mol/L.

smilesData | outcomeMeasure | reading
COc1cc(-c2nccc(-c3cccc(-c4ccc(CNC[C@H](C)O)c(OC)n4)c3Cl)c2Cl)cc2c1CN(CC(N)=O)CC2 | pIC50 | 8.27

Given the entry COC(=O)C[C@@H](CO)NCc1ccc(-c2nccc(-c3cccc(-c4ccc(CNC5CCN(C(C)=O)CC5)c(OC)n4)c3Cl)c2Cl)cc1OC , what pIC50 was observed with PD-L1 His protein / PD-1 Fc protein (Homo sapiens (Human))?
9.92

Given the entry CNCc1ccc(-c2nccc(-c3cccc(-c4ccc(CNC)c(OC)n4)c3Cl)c2Cl)cc1F , what pIC50 was observed with PD-L1 His protein / PD-1 Fc protein (Homo sapiens (Human))?
8.40

Given the entry COc1cc(-c2cncc(-c3cccc(-c4ccc(CNC5CCN(C(C)=O)CC5)c(OC)n4)c3Cl)c2Cl)ccc1CNC1CCN(C(C)=O)CC1 , what pIC50 was observed with PD-L1 His protein / PD-1 Fc protein (Homo sapiens (Human))?
10.05

Given the entry COc1cc(-c2nccc(-c3cccc(-c4ccc(CN5CC6(CNC(=O)C6)C5)c(OC)n4)c3F)c2Cl)ccc1CN1CC2(CNC(=O)C2)C1 , what pIC50 was observed with PD-L1 His protein / PD-1 Fc protein (Homo sapiens (Human))?
8.51

Given the entry COc1nc(-c2cccc(-c3nccc(-c4ccc(CNC5CCOCC5)c(OC)n4)c3Cl)c2Cl)ccc1CNC1CCOCC1 , what pIC50 was observed with PD-L1 His protein / PD-1 Fc protein (Homo sapiens (Human))?
10.40
